experimental.system: human GLP-1 receptor (human, UniProt P43220 24-463)
run.description: cell-based or functional assay
Starred links: 1 amine or outer side, 2 acyl side, 3 side chain; linkers in the order of their positions; H or OH if unused. Non-standard residues stand in square brackets, D forms with d. Groups on a side chain read outwards from the residue. No end group written: not given here. *: point of attachment. C20 diacid = O=C(O)CCCCCCCCCCCCCCCCCCC(=O)*; C18 diacid = O=C(O)CCCCCCCCCCCCCCCCC(=O)*; γGlu = O=C(O)[C@H](CCC(=O)[*:2])N[*:1]; εLys = N[C@@H](CCCCN[*:1])C(=O)[*:2]; Aib = CC(C)(N)C(=O)O; OEG = OEG spacer
Simple rule here: EC50 hGLP1R 0.5% hP (CreLuc) less than 200 pM is Condition met, otherwise Condition not met.

| binder | label.value |
| --- | --- |
| Y[Aib]EGTFTSDYSI[Aib]LEKQAQ[Aib]AFVQWLIK([OEG-OEG-γGlu-γGlu-γGlu-C18 diacid])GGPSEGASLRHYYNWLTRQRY-NH2 (also: TFA salt) [Compound 266] | Condition met |

Inquiry: For this binder, is EC50 hGLP1R 0.5% hP (CreLuc) lower than 200 pM? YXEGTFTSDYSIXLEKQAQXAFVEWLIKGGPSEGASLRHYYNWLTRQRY (Aib at 2, 13, 20; K28 side chain acylated with C18DA-gGlu-gGlu-gGlu-gGlu-gGlu; C-terminal amide (NH2)) [Compound 292]
Reply text: Condition met

Inquiry: And for Y[Aib]EGTFTSDYSI[Aib]LEKQAQ[Aib]AFVQWLIK([εLys-γGlu-γGlu-γGlu-γGlu-γGlu-C18 diacid])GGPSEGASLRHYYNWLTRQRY-NH2 (also: TFA salt) [Compound 267] ?
Reply text: Condition met

Inquiry: Next entry: Y[Aib]EGTFTSDYSI[Aib]LEKQAQ[Aib]EFVEWLIK([γGlu-γGlu-γGlu-γGlu-C20 diacid])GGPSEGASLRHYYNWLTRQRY-NH2 (also: TFA salt) [Compound 271]
Reply text: Condition not met

Inquiry: Further, for Y[Aib]EGTFTSDYSI[Aib]LEKQAQ[Aib]EFVEWLIK([γGlu-γGlu-γGlu-γGlu-C18 diacid])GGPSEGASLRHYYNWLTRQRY-NH2 (also: TFA salt) [Compound 276] ?
Reply text: Condition not met

Inquiry: Same question for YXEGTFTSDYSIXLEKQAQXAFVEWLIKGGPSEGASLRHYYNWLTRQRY (Aib at 2, 13, 20; K28 side chain acylated with C20DA-gGlu-gGlu-gGlu-gGlu-gGlu-AHX; C-terminal amide (NH2)) [Compound 301] please.
Reply text: Condition not met
